Readings of normalized growth for the listed compounds
- assay_overview: chemical genetic growth profiling, strain panel (AID 1159580);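 also: tested at 20 µM; growth read once vehicle control cultures reached saturation at 30 °C; 1 = growth at the plate median or of vehicle wells; lower values mean less growth of the strain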
- setup_conditions: S. cerevisiae deletion strains, growth OD, locus YER015W, strain faa2, hits give low values
In all, about 5,500 compounds went through this assay and about 2,000 (36%) were called active. About 18% were inconclusive and are not listed. The list shows a part of the results.
The answer should be written as a number, with no unit following it.

These solved cases illustrate the format of a correct answer.
CC1CCCC(C)N1NC(=O)c1ccc(Cl)c(S(N)(=O)=O)c1 (stereo not given) ... 1.02
Oc1ccc2c3c1OC1[C@@H](O)CC[C@@]4(O)[C@@H](C2)N(CC2CCC2)CC[C@]314 (stereo not given in full) ... 0.996
C=CCSSSCC=C ... 0.976

Could you tell me which normalized growth is on file for C[C@@H]1CC[C@@]23CCC4(C)[C@@](C=CC5[C@@]6(C)CC[C@H](O)C(C)(C)C6CC[C@]54C)(OC2=O)C3[C@H]1C (stereo not given in full) ?
1

How about CC(=O)O[C@@H]1CC2C(C)(CC[C@H](O)C2(C)C)C2CC[C@]3(C)C(=CC(=O)O[C@H]3c3ccoc3)C21C (stereo not given in full) ?
1

How about "CCc1ccc2c(O)c3c(cc2c1C(=O)OC)C(=O)c1c(O)ccc(O)c1C3=O" ?
0.974

How about C[C@@H]1CC[C@@]23CCC4(C)[C@@](C=CC5[C@@]6(C)CCC(=O)C(C)(C)C6CC[C@]54C)(OC2=O)C3[C@H]1C (stereo not given in full) ?
1.01

====

Readings of normalized growth for the listed compounds
- assay_overview: chemical genetic growth profiling, strain panel (AID 1159580);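 also: tested at 20 µM; growth read once vehicle control cultures reached saturation at 30 °C; 1 = growth at the plate median or of vehicle wells; lower values mean less growth of the strain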
- setup_conditions: S. cerevisiae deletion strains, growth OD, locus YMR129W, hits give low values
Hit rate of the full screen: of about 5,500 compounds, about 2,000 (36%) were called active. Inconclusive results (about 18%) are left out. The list shows a part of the results.
The answer should be written as a number, with no unit following it.

These solved cases illustrate the format of a correct answer.
COC1CC(OC2CCC3(C)C(CCC4C3CCC3(C)C(C5=CC(=O)OC5)C(OC(C)=O)CC43O)C2)OC(C)C1O (stereo not drawn) ... 1.01
NCCCN ... 0.991
C[C@H]1O[C@@H](O[C@H]2[C@@H](O)C[C@H](O[C@H]3[C@@H](O)C[C@H](O[C@H]4CC[C@]5(C)C6C[C@@H](O)[C@]7(C)[C@@H](C8=CC(=O)OC8)CC[C@]7(O)C6CC[C@@H]5C4)O[C@@H]3C)O[C@@H]2C)C[C@H](O)[C@@H]1O (stereo partly drawn) ... 0.996
COC1C(O)C(O[C@H]2CC[C@]3(C=O)C4C(CC[C@]3(O)C2)[C@@]2(O)CC[C@H](C3=CC(=O)OC3)[C@@]2(C)C[C@H]4OC(C)=O)OC(C)C1OC(C)=O (stereo partly drawn) ... 0.978
CC12CCC(=O)C=C1CCc1ccccc12 (stereo not drawn) ... 0.983

Could you tell me which normalized growth is on file for "O=C(Oc1cccc2cccnc12)c1ccccc1" ?
0.954

How about CC(C)(C)NCC(O)COc1cccc2c1CCCC2=O (stereo not drawn) ?
0.992

How about CC1(C)S[C@@H]2[C@H](NC(=O)C(C(=O)O)c3ccccc3)C(=O)N2[C@H]1C(=O)O (stereo partly drawn) ?
1

Hello, the source for this data is PubChem BioAssay AID1159580, in case you need it.
